assay: Elimination half-life of compound A; settings: in vivo; read-out: elimination half-life (T1/2)
endpoint name: half-life

Q: Query (compound): Nc1nc(CC(=O)Nc2ccc(CCNC[C@H](O)c3ccccc3)cc2)cs1 [compound A] ; field requested: half-life
Ans: 18 to 24 h

Value source: patent US12097189B1
